These measurements were taken from patent US11103505B2.

experiment: Phase 1 Part A: single ascending dose PK of Compound I (75 mg HME tablet) in healthy subjects; assay type: in vivo, human; details: human, in vivo, oral, 900 mg, single dose 900 mg, 75 mg HME tablet, fasted, N = 6; geometric mean (CV %); read-out: AUC0-12
measurement type: AUC(0-t) (ng·h/mL)

[[record]]
compound = "O=C(c1c(F)ccc(NS(=O)(=O)N2CC[C@@H](F)C2)c1F)c1c[nH]c2ncc(-c3cnc(C4CC4)nc3)cc12 [Compound I]"
numeric_value = 37500


====

experiment: Phase 1 Part B: effect of CYP3A4 inhibitor cobicistat on PK of Compound I (HME) in healthy subjects; type: in vivo, human; settings: human, in vivo, oral, 900 mg, Compound I 900 mg single dose alone, Part B, HME, fasted, N = 10; geometric mean (% CV); read-out: AUC0-24
measurement type: AUC(0-t) (ng·h/mL)

[[record]]
compound = "O=C(c1c(F)ccc(NS(=O)(=O)N2CC[C@@H](F)C2)c1F)c1c[nH]c2ncc(-c3cnc(C4CC4)nc3)cc12 [Compound I]"
measurement_type = "AUC(0-t)"
unit_descriptor = "ng·h/mL"
numeric_value = 34100


====

assay: Phase 1 Part A: single ascending dose PK of Compound I (75 mg HME tablet) in healthy subjects; assay type: in vivo, human; settings: human, in vivo, oral, 150 mg, single dose 150 mg, 75 mg HME tablet, fasted, N = 6; geometric mean (CV %); read-out: AUC0-12
measurement type: AUC(0-t) (µg·h/mL)

[[record]]
compound = "O=C(c1c(F)ccc(NS(=O)(=O)N2CC[C@@H](F)C2)c1F)c1c[nH]c2ncc(-c3cnc(C4CC4)nc3)cc12 [Compound I]"
measurement_type = "AUC(0-t)"
unit_descriptor = "µg·h/mL"
numeric_value = 7.24


====

assay: Phase 1 Part A: single ascending dose PK of Compound I (75 mg HME tablet) in healthy subjects; type: in vivo, human; settings: human, in vivo, oral; single dose 900 mg, 75 mg HME tablet, fasted, N = 6; geometric mean (CV %)
measurement type: AUC(0-inf) (ng·h/mL)

[[record]]
molecule_smiles = "O=C(c1c(F)ccc(NS(=O)(=O)N2CC[C@@H](F)C2)c1F)c1c[nH]c2ncc(-c3cnc(C4CC4)nc3)cc12"
unit_descriptor = "ng·h/mL"
numeric_value = 40400


====

assay: Phase 1 Part B: effect of CYP3A4 inhibitor cobicistat on PK of Compound I (HME) in healthy subjects; assay type: in vivo, human; details: human, in vivo, oral; Compound I 900 mg single dose alone, Part B, HME, fasted, N = 10; geometric mean (% CV)
measurement type: half-life

[[record]]
molecule_smiles = "O=C(c1c(F)ccc(NS(=O)(=O)N2CC[C@@H](F)C2)c1F)c1c[nH]c2ncc(-c3cnc(C4CC4)nc3)cc12"
result = "536 min"


====

assay: Phase 1 Part A: single ascending dose PK of Compound I (75 mg HME tablet) in healthy subjects; type: in vivo, human; conditions: human, in vivo, oral; single dose 150 mg, 75 mg HME tablet, fasted, N = 6; geometric mean (CV %)
measurement type: Cmax

[[record]]
molecule_smiles = "O=C(c1c(F)ccc(NS(=O)(=O)N2CC[C@@H](F)C2)c1F)c1c[nH]c2ncc(-c3cnc(C4CC4)nc3)cc12"
measurement_type = "Cmax"
result = "2070 ng/mL"


====

Test: Phase 1 Part A: single ascending dose PK of Compound I (75 mg HME tablet) in healthy subjects
Assay type: in vivo, human
Settings: human, in vivo, oral, 300 mg, single dose 300 mg, 75 mg HME tablet, fasted, N = 5; geometric mean (CV %); read-out: AUC0-12
Experimental: The 75 mg tablet formulation (described in Table 4) was made using the hot melt extrusion (HME) process described in this disclosure. This 75 mg tablet was used in human clinical studies (single-dose study in healthy volunteers) and (repeat-dose study in cancer patients). […] Following repeat dosing, the steady state exposure at the highest dose evaluated (900 mg BID), AUCt=68700 ng·hr/mL, approached the target efficacious exposure (Table 7). […]
measurement type: AUC(0-t)

[[record]]
molecule = "O=C(c1c(F)ccc(NS(=O)(=O)N2CC[C@@H](F)C2)c1F)c1c[nH]c2ncc(-c3cnc(C4CC4)nc3)cc12 [Compound I]"
result = "12100 ng·h/mL"


====

experiment: Phase 1 Part A: single ascending dose PK of Compound I (75 mg HME tablet) in healthy subjects; format: in vivo, human; settings: human, in vivo, oral; single dose 150 mg, 75 mg HME tablet, fasted, N = 6; geometric mean (CV %)
measurement type: AUC(0-inf) (ng·h/mL)

[[record]]
molecule_smiles = "O=C(c1c(F)ccc(NS(=O)(=O)N2CC[C@@H](F)C2)c1F)c1c[nH]c2ncc(-c3cnc(C4CC4)nc3)cc12"
measurement_type = "AUC(0-inf)"
numeric_value = 7610


====

assay: Phase 1 Part A: single ascending dose PK of Compound I (75 mg HME tablet) in healthy subjects; type: in vivo, human; details: human, in vivo, oral; single dose 300 mg, 75 mg HME tablet, fasted, N = 5; geometric mean (CV %)
measurement type: Cmax (ng/mL)

[[record]]
molecule_smiles = "O=C(c1c(F)ccc(NS(=O)(=O)N2CC[C@@H](F)C2)c1F)c1c[nH]c2ncc(-c3cnc(C4CC4)nc3)cc12"
measurement_type = "Cmax"
numeric_value = 4180


====

experiment: Phase 1 Part A: single ascending dose PK of Compound I (75 mg HME tablet) in healthy subjects; assay type: in vivo, human; conditions: human, in vivo, oral, 450 mg, single dose 450 mg, 75 mg HME tablet, fasted, N = 6; geometric mean (CV %); read-out: AUC0-12
measurement type: AUC(0-t) (ng·h/mL)

[[record]]
compound = "O=C(c1c(F)ccc(NS(=O)(=O)N2CC[C@@H](F)C2)c1F)c1c[nH]c2ncc(-c3cnc(C4CC4)nc3)cc12 [Compound I]"
measurement_type = "AUC(0-t)"
unit_descriptor = "ng·h/mL"
numeric_value = 21000


====

assay: Phase 1 Part A: single ascending dose PK of Compound I (75 mg HME tablet) in healthy subjects; type: in vivo, human; details: human, in vivo, oral; single dose 150 mg, 75 mg HME tablet, fasted, N = 6; median (minimum-maximum); read-out: tmax
measurement type: Tmax (h)

[[record]]
molecule_smiles = "O=C(c1c(F)ccc(NS(=O)(=O)N2CC[C@@H](F)C2)c1F)c1c[nH]c2ncc(-c3cnc(C4CC4)nc3)cc12"
numeric_value = 2


====

assay: Phase 1 Part A: single ascending dose PK of Compound I (75 mg HME tablet) in healthy subjects; assay type: in vivo, human; settings: human, in vivo, oral, 150 mg, single dose 150 mg, 75 mg HME tablet, fasted, N = 6; geometric mean (CV %); read-out: AUC0-t
measurement type: AUC(0-t)

[[record]]
molecule_smiles = "O=C(c1c(F)ccc(NS(=O)(=O)N2CC[C@@H](F)C2)c1F)c1c[nH]c2ncc(-c3cnc(C4CC4)nc3)cc12"
result = "7870 ng·h/mL"


====

assay: Phase 1 Part A: single ascending dose PK of Compound I (75 mg HME tablet) in healthy subjects; type: in vivo, human; conditions: human, in vivo, oral, 150 mg, single dose 150 mg, 75 mg HME tablet, fasted, N = 6; geometric mean (CV %); read-out: AUC0-24
measurement type: AUC(0-t) (µg·h/mL)

[[record]]
compound = "O=C(c1c(F)ccc(NS(=O)(=O)N2CC[C@@H](F)C2)c1F)c1c[nH]c2ncc(-c3cnc(C4CC4)nc3)cc12 [Compound I]"
measurement_type = "AUC(0-t)"
unit_descriptor = "µg·h/mL"
numeric_value = 7.72


====

experiment: Phase 1 Part A: single ascending dose PK of Compound I (75 mg HME tablet) in healthy subjects; assay type: in vivo, human; settings: human, in vivo, oral; single dose 300 mg, 75 mg HME tablet, fasted, N = 5; geometric mean (CV %)
measurement type: AUC(0-inf) (ng·h/mL)

[[record]]
compound = "O=C(c1c(F)ccc(NS(=O)(=O)N2CC[C@@H](F)C2)c1F)c1c[nH]c2ncc(-c3cnc(C4CC4)nc3)cc12 [Compound I]"
numeric_value = 13200


====

assay: Phase 1 Part A: single ascending dose PK of Compound I (75 mg HME tablet) in healthy subjects; format: in vivo, human; details: human, in vivo, oral; single dose 150 mg, 75 mg HME tablet, fasted, N = 6; geometric mean (CV %); read-out: Vz/F
measurement type: Vd/F (L)

[[record]]
molecule_smiles = "O=C(c1c(F)ccc(NS(=O)(=O)N2CC[C@@H](F)C2)c1F)c1c[nH]c2ncc(-c3cnc(C4CC4)nc3)cc12"
measurement_type = "Vd/F"
unit_descriptor = "L"
numeric_value = 233


====

assay: Phase 1 Part B: effect of CYP3A4 inhibitor cobicistat on PK of Compound I (HME) in healthy subjects; assay type: in vivo, human; details: human, in vivo, oral; Compound I 900 mg single dose alone, Part B, HME, fasted, N = 10; median (minimum-maximum)
measurement type: Tmax (h)

[[record]]
molecule_smiles = "O=C(c1c(F)ccc(NS(=O)(=O)N2CC[C@@H](F)C2)c1F)c1c[nH]c2ncc(-c3cnc(C4CC4)nc3)cc12"
numeric_value = 2

